These data points were gathered from patent US20240384268A1.

- SUBJECT OF TEST: cGAS (Homo sapiens, UniProt Q8N884)
- Sequence (Q8N884 whole entry): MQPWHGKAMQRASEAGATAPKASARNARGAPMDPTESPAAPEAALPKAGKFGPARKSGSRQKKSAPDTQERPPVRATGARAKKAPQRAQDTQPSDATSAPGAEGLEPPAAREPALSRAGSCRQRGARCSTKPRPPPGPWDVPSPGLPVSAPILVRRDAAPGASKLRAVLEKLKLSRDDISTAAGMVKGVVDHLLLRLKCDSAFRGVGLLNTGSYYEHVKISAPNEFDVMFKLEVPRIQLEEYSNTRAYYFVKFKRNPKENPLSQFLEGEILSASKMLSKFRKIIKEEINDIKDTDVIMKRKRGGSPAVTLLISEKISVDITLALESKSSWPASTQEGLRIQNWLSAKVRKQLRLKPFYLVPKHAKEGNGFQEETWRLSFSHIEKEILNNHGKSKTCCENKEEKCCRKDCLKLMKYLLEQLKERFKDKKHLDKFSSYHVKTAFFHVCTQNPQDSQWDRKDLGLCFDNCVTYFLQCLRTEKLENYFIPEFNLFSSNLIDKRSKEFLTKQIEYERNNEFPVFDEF
- EXPERIMENTAL PROTOCOL: ISD70-driven IP-10 (and IFN-β) production in THP-1 cells, ELISA
- Format: cell-based
- Set-up: endogenous in cells; host or cells: THP-1 (undifferentiated)
- ASSAY CONTEXT: THP-1; 100 nM ASO overnight, then ISD70 2.5 μg/ml 7-8 h; percentage of ISD70 only
In the oligonucleotide strings, read from the 5' end, every base follows the letter of its sugar. An asterisk marks phosphorothioate; unmarked linkages are phosphodiester. Other units and linkages are bracketed, terminal groups are in braces. A string of capitals states the bases alone. d = 2'-deoxy (DNA); m = 2'-O-methyl
Think of 90% as a floor: if cGAS-100 nM: averaged IP-10 levels relative to ISD70 stands on it or above, it is Condition met; beneath it, Condition not met.

Worked examples follow.
Confirm if cGAS-100 nM: averaged IP-10 levels relative to ISD70 reported for the substance mG*mU*mC*mC*mG*T*A*C*C*T*C*C*A*C*C*mC″mA*mC*mC*mG [[LINC-PINT]727.1] is 90% or above. Condition not met

Hi, just wondering whether mC*mA*mG*mG*mC*C*T*C*C*A*G*T*G*T*C*mU*mU*mC*mU*mC (mC*mA*mG*mG*mC*dC*dT*dC*dC*dA*dG*dT*dG*dT*dC*mU*mU*mC*mU*mC; antisense) [[CDKN2B-AS1]2219] shows cGAS-100 nM: averaged IP-10 levels relative to ISD70 of 90% or higher. Condition met

I'd appreciate it if you could say whether mC*mC*mA*mU*mG*T*C*C*C*A*G*G*C*C*T*mC*mC*mA*mG*mU (CCAUGTCCCAGGCCTCCAGU; sugars from the 5' end m5 d10 m5, all phosphorothioate, methylation of C not given here) [[CDKN2B-AS1]2227] has cGAS-100 nM: averaged IP-10 levels relative to ISD70 at least equal to 90%. Condition not met

Could you tell me if the measured cGAS-100 nM: averaged IP-10 levels relative to ISD70 of mU*mC*mC*mC*mA*T*C*C*C*T*T*C*T*G*C*mU*mG*mA*mC*mA (UCCCATCCCTTCTGCUGACA; sugars from the 5' end m5 d10 m5, all phosphorothioate, methylation of C not given here) [[LINC-PINT]101] reaches 90% or more? Condition not met

Lab note: next substance to report on.
Has mA*mA*mG*mC*mA*G*T*C*T*C*C*A*T*G*T*mC*mC*mC*mA*mG (mA*mA*mG*mC*mA*dG*dT*dC*dT*dC*dC*dA*dT*dG*dT*mC*mC*mC*mA*mG; antisense) [[CDKN2B-AS1]2236] a recorded cGAS-100 nM: averaged IP-10 levels relative to ISD70 greater than or equal to 90%? Condition met

---

- SUBJECT OF TEST: human TLR7 (Homo sapiens)
- Construct: HA; host or cells: 293XL-hTLR7-HA (HEK293)
- Sequence (Q9NYK1 27-1049): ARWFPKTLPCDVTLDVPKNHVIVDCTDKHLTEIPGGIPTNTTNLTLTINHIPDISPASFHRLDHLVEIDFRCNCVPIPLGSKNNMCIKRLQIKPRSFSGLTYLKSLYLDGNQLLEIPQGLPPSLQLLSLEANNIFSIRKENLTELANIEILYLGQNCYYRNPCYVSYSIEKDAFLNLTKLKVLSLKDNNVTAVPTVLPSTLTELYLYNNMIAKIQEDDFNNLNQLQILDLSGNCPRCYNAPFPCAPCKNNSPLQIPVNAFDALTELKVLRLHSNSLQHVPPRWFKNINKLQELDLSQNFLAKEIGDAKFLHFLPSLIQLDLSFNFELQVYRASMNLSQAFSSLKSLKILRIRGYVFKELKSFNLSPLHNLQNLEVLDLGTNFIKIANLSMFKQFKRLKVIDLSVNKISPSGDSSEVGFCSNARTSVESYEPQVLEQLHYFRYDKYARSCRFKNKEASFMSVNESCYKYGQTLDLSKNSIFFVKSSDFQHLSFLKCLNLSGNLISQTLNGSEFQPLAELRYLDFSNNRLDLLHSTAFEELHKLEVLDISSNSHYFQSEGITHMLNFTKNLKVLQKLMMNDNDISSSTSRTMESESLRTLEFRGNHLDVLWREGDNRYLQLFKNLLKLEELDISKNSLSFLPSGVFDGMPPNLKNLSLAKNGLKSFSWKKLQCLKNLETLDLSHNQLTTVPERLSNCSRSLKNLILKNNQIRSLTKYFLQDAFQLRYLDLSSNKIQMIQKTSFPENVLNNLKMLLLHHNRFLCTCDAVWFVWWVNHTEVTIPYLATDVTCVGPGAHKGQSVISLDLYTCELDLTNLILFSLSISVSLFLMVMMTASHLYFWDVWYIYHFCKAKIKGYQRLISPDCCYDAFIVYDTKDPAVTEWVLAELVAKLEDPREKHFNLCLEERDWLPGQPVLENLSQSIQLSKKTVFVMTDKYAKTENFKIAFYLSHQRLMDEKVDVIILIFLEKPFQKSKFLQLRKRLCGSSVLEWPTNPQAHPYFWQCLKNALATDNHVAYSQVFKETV
- EXPERIMENTAL PROTOCOL: HEK-TLR7 NF-κB-luciferase reporter, R848 stimulation
- Assay type: cell-based
- ASSAY CONTEXT: MOE-modified ASO at 100 nM; averaged NF-κB-Luciferase relative to R848 condition
EXPERIMENTAL READOUT: TLR7 100 nM
Output spec: single numeric token, no unit.

These recorded examples may help you get a feel for the data.
Supply reported TLR7 100 nM belonging to this sequence: CTCTTGAAGCATCGTATCAC (antisense; 2'-MOE modified, pattern not given here) [CTNN2B-3648 MOE] 0.609

Give the reported TLR7 100 nM for this sequence. ACAACCCCTTTCACCATCCC (antisense; 2'-MOE modified, pattern not given here) [MB21D1-689 MOE] 0.593

Further cases:
Check the records and state TLR7 100 nM for CGTGTCTGGAAGCTTCCTTT (antisense; 2'-MOE modified, pattern not given here) [CTNN2B-808 MOE] 0.541

Annotate the sequence CAGATAGCACCTTCAGCACT (antisense; 2'-MOE modified, pattern not given here) [CTNN2B-1294 MOE] with its measured TLR7 100 nM. 0.497

Retrieve TLR7 100 nM measured for GCCGCTTTTCTGTCTGGTTC (antisense; 2'-MOE modified, pattern not given here) [CTNN2B-311 MOE] and print it. 0.567

Item ACCCACTTGGCAGACCATCA (antisense; 2'-MOE modified, pattern not given here) [CTNN2B-1575 MOE] : provide TLR7 100 nM 0.473

Write down TLR7 100 nM measured for item TCGCACTTCAGTCTGAGCAG (antisense; 2'-MOE modified, pattern not given here) [MB21D1-719 MOE] 0.574

Note TLR7 100 nM for the sequence shown: GGGTATCGAAAGAGTCTGGA (antisense; 2'-MOE modified, pattern not given here) [EGFR-3908 MOE] 0.350

Could you please provide reported TLR7 100 nM for GGTCCATACCCAAGGCATCC (antisense; 2'-MOE modified, pattern not given here) [CTNN2B-2446 MOE] ? Thanks! 0.364

---

- SUBJECT OF TEST: TLR8 (Homo sapiens, UniProt Q9NR97)
- Sequence (Q9NR97 27-1041): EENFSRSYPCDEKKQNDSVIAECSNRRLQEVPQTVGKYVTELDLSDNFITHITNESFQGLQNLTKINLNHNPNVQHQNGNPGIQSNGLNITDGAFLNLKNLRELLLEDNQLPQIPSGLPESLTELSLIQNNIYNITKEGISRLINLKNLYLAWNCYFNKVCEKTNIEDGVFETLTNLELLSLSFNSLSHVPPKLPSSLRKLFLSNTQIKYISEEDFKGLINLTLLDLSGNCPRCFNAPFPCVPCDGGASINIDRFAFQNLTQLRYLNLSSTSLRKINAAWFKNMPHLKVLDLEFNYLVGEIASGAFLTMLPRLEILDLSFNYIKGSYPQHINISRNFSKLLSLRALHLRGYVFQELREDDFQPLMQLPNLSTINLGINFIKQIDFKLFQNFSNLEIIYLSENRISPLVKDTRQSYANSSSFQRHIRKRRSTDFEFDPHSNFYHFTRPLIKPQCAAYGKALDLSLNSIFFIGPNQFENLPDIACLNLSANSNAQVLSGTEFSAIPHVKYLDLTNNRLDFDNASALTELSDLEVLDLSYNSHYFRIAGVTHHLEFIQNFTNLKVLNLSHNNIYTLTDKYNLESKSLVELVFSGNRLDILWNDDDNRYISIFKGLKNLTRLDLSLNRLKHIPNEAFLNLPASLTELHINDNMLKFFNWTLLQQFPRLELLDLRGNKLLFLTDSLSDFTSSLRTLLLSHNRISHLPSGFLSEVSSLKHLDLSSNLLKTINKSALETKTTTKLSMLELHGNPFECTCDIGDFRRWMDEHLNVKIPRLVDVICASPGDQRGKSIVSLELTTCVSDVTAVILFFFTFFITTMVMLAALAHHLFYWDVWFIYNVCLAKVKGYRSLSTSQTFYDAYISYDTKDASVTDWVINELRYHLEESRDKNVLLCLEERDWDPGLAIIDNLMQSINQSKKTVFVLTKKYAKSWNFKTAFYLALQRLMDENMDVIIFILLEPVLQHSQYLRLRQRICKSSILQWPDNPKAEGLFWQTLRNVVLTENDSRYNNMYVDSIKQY
- EXPERIMENTAL PROTOCOL: HEK-TLR8 NF-κB-luciferase reporter, R848 or Motolimod stimulation (potentiation or inhibition)
- Format: cell-based
- Design: expressed in transfected cells; host or cells: 293XLhTLR8 (HEK293)
- ASSAY CONTEXT: HEK-TLR8; 500 nM ASO; fold increase relative to R848 without ASO (Alharbi et al., 2020)
In the oligonucleotide strings, read from the 5' end, every base follows the letter of its sugar. An asterisk marks phosphorothioate; unmarked linkages are phosphodiester. Other units and linkages are bracketed, terminal groups are in braces. A string of capitals states the bases alone. d = 2'-deoxy (DNA); m = 2'-O-methyl
Values of TLR8-500 nM: averaged NF-κB-Luciferase relative to R848 greater than or equal to 2 fold map to Criterion met; values below map to Criterion not met.

Consider the following illustrative entries.
Kindly determine if TLR8-500 nM: averaged NF-κB-Luciferase relative to R848 recorded for mC*mA*mG*mU*mC*T*C*C*A*T*G*T*C*C*C*mA*mG*mG*mC*mC (mC*mA*mG*mU*mC*dT*dC*dC*dA*dT*dG*dT*dC*dC*dC*mA*mG*mG*mC*mC; antisense) [[CDKN2B-AS1]2233] is above or exactly 2 fold. Criterion met

Given the entry mC*mA*mC*mU*mG*T*A*T*T*T*T*A*T*T*A*mC*mA*mG*mA*mA (mC*mA*mC*mU*mG*dT*dA*dT*dT*dT*dT*dA*dT*dT*dA*mC*mA*mG*mA*mA; antisense) [[LINC-PINT]2990] , answer whether its TLR8-500 nM: averaged NF-κB-Luciferase relative to R848 meets or surpasses 2 fold. Criterion met

Entry mA*mU*mU*mU*mC*C*A*C*A*T*G*C*C*C*A*mG*mU*mG*mU*mU (AUUUCCACATGCCCAGUGUU; antisense; sugars from the 5' end m5 d10 m5, all phosphorothioate, methylation of C not given here) [[CDKN2B-AS1]626] : is its TLR8-500 nM: averaged NF-κB-Luciferase relative to R848 no less than 2 fold? Criterion met

Given mA*mG*mC*mC*mG*A*A*C*A*G*A*A*G*G*A*mG*mC*mG*mU*mC (AGCCGAACAGAAGGAGCGUC; sugars from the 5' end m5 d10 m5, all phosphorothioate, methylation of C not given here) [[LINC-PINT]587 KL] , state whether its TLR8-500 nM: averaged NF-κB-Luciferase relative to R848 is at least 2 fold. Criterion met

Evaluate mC*mC*mC*mU*mA*A*T*G*C*T*T*T*C*C*T*mC*mU*mC*mC*mA (mC*mC*mC*mU*mA*dA*dT*dG*dC*dT*dT*dT*dC*dC*dT*mC*mU*mC*mC*mA; antisense) [[LINC-PINT1877 KL] : TLR8-500 nM: averaged NF-κB-Luciferase relative to R848 at minimum 2 fold? Criterion met

Exam item: decide whether the reported TLR8-500 nM: averaged NF-κB-Luciferase relative to R848 for mU*mU*mU*mG*mA*A*A*T*T*C*A*G*A*A*G*mA*mU*mU*mU*mG (mU*mU*mU*mG*mA*dA*dA*dT*dT*dC*dA*dG*dA*dA*dG*mA*mU*mU*mU*mG) [[LINC PINT|2690] is at least 2 fold. Criterion met

I'd appreciate it if you could say whether mC*mC*mU*mA*mG*A*A*A*G*A*A*G*C*A*A*mA*mG*mA*mU*mU (mC*mC*mU*mA*mG*dA*dA*dA*dG*dA*dA*dG*dC*dA*dA*mA*mG*mA*mU*mU) [[CDKN2B-AS1]1522] has TLR8-500 nM: averaged NF-κB-Luciferase relative to R848 at least equal to 2 fold. Criterion met

Please indicate if the recorded TLR8-500 nM: averaged NF-κB-Luciferase relative to R848 for mA*mU*mG*mA*mC*A*T*T*T*C*G*T*G*G*C*mU*mC*mC*mU*mA (mA*mU*mG*mA*mC*dA*dT*dT*dT*dC*dG*dT*dG*dG*dC*mU*mC*mC*mU*mA) [[LINC-PINT]524.1] meets or exceeds 2 fold. Criterion not met

Decide: TLR8-500 nM: averaged NF-κB-Luciferase relative to R848 of mU*mC*mU*mG*mG*T*C*C*C*A*T*C*C*C*T*mU*mC*mU*mG*mC (UCUGGTCCCATCCCTUCUGC; antisense; sugars from the 5' end m5 d10 m5, all phosphorothioate, methylation of C not given here) [[LINC-PINT]106] >= 2 fold? Criterion met

For this substance, is measured TLR8-500 nM: averaged NF-κB-Luciferase relative to R848 2 fold or higher? mU*mG*mA*mC*mA*A*A*A*C*A*A*T*A*A*T*mA*mA*mC*mA*mG (mU*mG*mA*mC*mA*dA*dA*dA*dC*dA*dA*dT*dA*dA*dT*mA*mA*mC*mA*mG) [[LINC-PINT]384] Criterion met

***
# bool: TLR8-500 nM: averaged NF-κB-Luciferase relative to R848 of mU*mU*mG*mU*mG*A*A*A*A*G*A*T*T*A*T*mC*mU*mU*mC*mU (mU*mU*mG*mU*mG*dA*dA*dA*dA*dG*dA*dT*dT*dA*dT*mC*mU*mU*mC*mU) [[CDKN2B-AS1]2138] >= 2 fold Criterion not met

Is reported TLR8-500 nM: averaged NF-κB-Luciferase relative to R848 greater than or equal to 2 fold here: mA*mG*mU*mC*mU*C*C*A*T*G*T*C*C*C*A*mG*mG*mC*mC*mU (mA*mG*mU*mC*mU*dC*dC*dA*dT*dG*dT*dC*dC*dC*dA*mG*mG*mC*mC*mU; antisense) [[CDKN2B-AS1]2232] Criterion met

Please indicate if the recorded TLR8-500 nM: averaged NF-κB-Luciferase relative to R848 for mA*mA*mA*mG*mA*T*T*A*T*C*T*T*C*T*T*mU*mU*mA*mA*mU (mA*mA*mA*mG*mA*dT*dT*dA*dT*dC*dT*dT*dC*dT*dT*mU*mU*mA*mA*mU) [[CDKN2B-AS1]2132] meets or exceeds 2 fold. Criterion met

Has mU*mC*mU*mC*mC*A*T*G*T*C*C*C*A*G*G*mC*mC*mU*mC*mC (mU*mC*mU*mC*mC*dA*dT*dG*dT*dC*dC*dC*dA*dG*dG*mC*mC*mU*mC*mC; antisense) [[CDKN2B-AS1]2230] a recorded TLR8-500 nM: averaged NF-κB-Luciferase relative to R848 greater than or equal to 2 fold? Criterion met

Kindly determine if TLR8-500 nM: averaged NF-κB-Luciferase relative to R848 recorded for mG*mU*mG*mU*mC*C*T*T*C*A*T*G*C*T*T*mU*mG*mG*mA*mU (GUGUCCTTCATGCTTUGGAU; antisense; sugars from the 5' end m5 d10 m5, all phosphorothioate, methylation of C not given here) [[CDKN2B-AS1]1415] is above or exactly 2 fold. Criterion not met

Given the entry mA*mA*mG*mG*mU*G*G*C*C*A*C*A*G*G*C*mA*mA*mC*mG*mU (mA*mA*mG*mG*mU*dG*dG*dC*dC*dA*dC*dA*dG*dG*dC*mA*mA*mC*mG*mU; antisense) [[CDKN2B-AS1]2198] , answer whether its TLR8-500 nM: averaged NF-κB-Luciferase relative to R848 meets or surpasses 2 fold. Criterion not met

Confirm if TLR8-500 nM: averaged NF-κB-Luciferase relative to R848 reported for the substance mC*mC*mC*mU*mU*C*T*C*T*C*T*G*G*T*C*mC*mC*mA*mU*mC (mC*mC*mC*mU*mU*dC*dT*dC*dT*dC*dT*dG*dG*dT*dC*mC*mC*mA*mU*mC; antisense) [[LINC-PINT]114] is 2 fold or above. Criterion met
